Biological target: T1, ECD of human 4Ig-B7H3 (Sinobiological, Cat: 11188-H08H) (human, UniProt Q5ZPR3 29-466)
T1 construct: Bought protein; also called recombinant B7H3
T1 sequence: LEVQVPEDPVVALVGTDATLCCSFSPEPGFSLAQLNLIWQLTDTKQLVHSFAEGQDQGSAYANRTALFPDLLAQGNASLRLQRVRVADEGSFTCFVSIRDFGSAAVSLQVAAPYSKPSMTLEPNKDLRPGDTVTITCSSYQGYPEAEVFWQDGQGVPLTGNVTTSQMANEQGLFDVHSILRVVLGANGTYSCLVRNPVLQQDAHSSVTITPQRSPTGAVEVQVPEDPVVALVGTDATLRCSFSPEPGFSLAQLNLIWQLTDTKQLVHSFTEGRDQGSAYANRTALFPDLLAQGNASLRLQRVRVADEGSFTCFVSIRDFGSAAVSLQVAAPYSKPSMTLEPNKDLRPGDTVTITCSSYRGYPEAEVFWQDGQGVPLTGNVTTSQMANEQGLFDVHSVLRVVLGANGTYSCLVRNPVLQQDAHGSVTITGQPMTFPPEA
Experiment: SPR, antibody captured on anti-human Fc surface, Test 1
Decision: kon beneath 300000 M⁻¹ s⁻¹ gives YES; kon meeting or exceeding 300000 M⁻¹ s⁻¹ gives NO.

BINDER: BGA-4269 (BGA-3726 variant comprising W98Y in HCDR3) (antibody, human IgG1, kappa, V domains shown) VH: QVQLQESGPGLVKPSGTLSLTCAVSGGSISTSNWWNWVRQSPGKGLEWIGEIYPTGNTNYSPSLKSRVTISIDKSKNQFSLKLNSVTAADTAVYYCARGWNYFDPWGQGTLVTVSS VL: EIVLTQSPGTLSLSPGERATLSCRTSQSINGILLAWYQQKPGQAPRLLIYGASSRATGIPDRFSGSGSGTDFTLSISRLEPEDFAVYYCQQYGSSPRTFGQGTKVEIKR
CATEGORY LABEL: YES

QUERY: Lab log: compare recorded kon with 300000 M⁻¹ s⁻¹; is it strictly lower for BGA-3726 in human full-length format (human IgG1 variant IgG1mf / kappa) (antibody, V domains shown) VH: QVQLQESGPGLVKPSGTLSLTCAVSGGSISTSNWWNWVRQSPGKGLEWIGEIYPTGNTNYSPSLKSRVTISIDKSKNQFSLKLNSVTAADTAVYYCARGWNWFDPWGQGTLVTVSS VL: EIVLTQSPGTLSLSPGERATLSCRTSQSINGILLAWYQQKPGQAPRLLIYGASSRATGIPDRFSGSGSGTDFTLSISRLEPEDFAVYYCQQYGSSPRTFGQGTKVEIKR ?
RESULT: NO

QUERY: Lab log: compare recorded kon with 300000 M⁻¹ s⁻¹; is it strictly lower for BGA-4498 (BGA-3726 variant comprising W96Y in HCDR3) (antibody, human IgG1, kappa, V domains shown) VH: QVQLQESGPGLVKPSGTLSLTCAVSGGSISTSNWWNWVRQSPGKGLEWIGEIYPTGNTNYSPSLKSRVTISIDKSKNQFSLKLNSVTAADTAVYYCARGYNWFDPWGQGTLVTVSS VL: EIVLTQSPGTLSLSPGERATLSCRTSQSINGILLAWYQQKPGQAPRLLIYGASSRATGIPDRFSGSGSGTDFTLSISRLEPEDFAVYYCQQYGSSPRTFGQGTKVEIKR ?
RESULT: NO

QUERY: Lab log: compare recorded kon with 300000 M⁻¹ s⁻¹; is it strictly lower for BGA-4265 (BGA-3726 variant comprising G30A in LCDR1) (antibody, human IgG1, kappa, V domains shown) VH: QVQLQESGPGLVKPSGTLSLTCAVSGGSISTSNWWNWVRQSPGKGLEWIGEIYPTGNTNYSPSLKSRVTISIDKSKNQFSLKLNSVTAADTAVYYCARGWNWFDPWGQGTLVTVSS VL: EIVLTQSPGTLSLSPGERATLSCRTSQSINAILLAWYQQKPGQAPRLLIYGASSRATGIPDRFSGSGSGTDFTLSISRLEPEDFAVYYCQQYGSSPRTFGQGTKVEIKR ?
RESULT: NO

QUERY: Lab log: compare recorded kon with 300000 M⁻¹ s⁻¹; is it strictly lower for BGA-4826 (BGA-3726 variant comprising W34Y in HCDR1) (antibody, human IgG1, kappa, V domains shown) VH: QVQLQESGPGLVKPSGTLSLTCAVSGGSISTSNYWNWVRQSPGKGLEWIGEIYPTGNTNYSPSLKSRVTISIDKSKNQFSLKLNSVTAADTAVYYCARGWNWFDPWGQGTLVTVSS VL: EIVLTQSPGTLSLSPGERATLSCRTSQSINGILLAWYQQKPGQAPRLLIYGASSRATGIPDRFSGSGSGTDFTLSISRLEPEDFAVYYCQQYGSSPRTFGQGTKVEIKR ?
RESULT: YES

QUERY: Lab log: compare recorded kon with 300000 M⁻¹ s⁻¹; is it strictly lower for BGA-4380 (BGA-3726 variant comprising N29Q in LCDR1) (antibody, human IgG1, kappa, V domains shown) VH: QVQLQESGPGLVKPSGTLSLTCAVSGGSISTSNWWNWVRQSPGKGLEWIGEIYPTGNTNYSPSLKSRVTISIDKSKNQFSLKLNSVTAADTAVYYCARGWNWFDPWGQGTLVTVSS VL: EIVLTQSPGTLSLSPGERATLSCRTSQSIQGILLAWYQQKPGQAPRLLIYGASSRATGIPDRFSGSGSGTDFTLSISRLEPEDFAVYYCQQYGSSPRTFGQGTKVEIKR ?
RESULT: NO
